Value source: FireProtDB (doi:10.1016/0022-2836(92)90562-x)

Overview of recorded denaturant m value for various variants
B1: Ribonuclease, P00648 (parent)
chain: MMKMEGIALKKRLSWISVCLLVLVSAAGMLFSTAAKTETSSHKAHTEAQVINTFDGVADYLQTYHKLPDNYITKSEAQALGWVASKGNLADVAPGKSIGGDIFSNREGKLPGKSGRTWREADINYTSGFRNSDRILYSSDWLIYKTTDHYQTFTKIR

Variants of: B1
Conditions: Bacillus amyloliquefaciens; pH 6.3; 25 °C; Urea; Fluorescence; MES-NaOH 450 mM; reversible: yes; structure 1BNI; whole UniProt chain shown
Provide the reading as a plain figure in kcal/mol/M.

## Task Consider the variant shown here: I102T What is its recorded denaturant m value?
## Result 1.84

## Task Consider the variant shown here: V83A What is its recorded denaturant m value?
## Result 1.83

## Task Consider the variant shown here: I143V What is its recorded denaturant m value?
## Result 1.9

## Task Consider the variant shown here: I72V What is its recorded denaturant m value?
## Result 2

## Task Consider the variant shown here: V83T What is its recorded denaturant m value?
## Result 1.95

## Task Consider the variant shown here: I123V What is its recorded denaturant m value?
## Result 1.89

## Task Consider the variant shown here: L136T What is its recorded denaturant m value?
## Result 1.78
